// provenance: paper PMC5100569

- target or test system: saCodY (Staphylococcus aureus, UniProt A7X1N2, E153A)
- assay explanation: biochemical
metric: pKd
Here pKd is given on a logarithmic scale as minus log10 of the concentration in mol/L.

Request: State pKd on saCodY (Staphylococcus aureus, UniProt A7X1N2, E153A). Entry: Nc1nc2c(ncn2[C@@H]2O[C@H](COP(=O)(O)OP(=O)(O)OP(=O)(O)O)[C@@H](O)[C@H]2O)c(=O)[nH]1 [GTP]
Response: 1.55

====

Protein target, amino acids: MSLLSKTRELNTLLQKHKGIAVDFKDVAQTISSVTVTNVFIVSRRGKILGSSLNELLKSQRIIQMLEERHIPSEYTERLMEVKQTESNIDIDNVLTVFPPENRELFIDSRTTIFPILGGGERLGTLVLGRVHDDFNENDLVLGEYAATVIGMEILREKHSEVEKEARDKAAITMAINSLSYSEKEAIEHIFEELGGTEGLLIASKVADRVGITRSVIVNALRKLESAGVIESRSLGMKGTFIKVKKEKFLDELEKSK
metric: Kd (mM)
Dear colleague, please return just the value in mM, with no unit written.

In the examples that follow, each entry is paired with its recorded Kd.
Nc1nc2c(ncn2[C@@H]2O[C@H](COP(=O)(O)OP(=O)(O)OP(=O)(O)O)[C@@H](O)[C@H]2O)c(=O)[nH]1 = 2.26
Nc1nc2c(ncn2[C@@H]2O[C@H](COP(=O)(O)O)[C@@H](O)[C@H]2O)c(=O)[nH]1 = 20
Nc1nc2c(ncn2[C@@H]2O[C@H](COP(=O)(O)OP(=O)(O)O)[C@@H](O)[C@H]2O)c(=O)[nH]1 = 17

From here, focus on the item given below.
Request: For the molecule `Nc1ncnc2c1ncn2[C@@H]1O[C@H](COP(=O)(O)OP(=O)(O)OP(=O)(O)O)[C@@H](O)[C@H]1O` , give its reported Kd.
Response: 19
